Settings: 303.15 K; 101 kPa; Liquid
Mark -1 for mass density values under 1000 kg/m3, and 1 for everything at or above.

Q) Is mass density at least 1000 kg/m3? Consider CCCCCCCCCCO [decan-1-ol]
A) -1

Q) Is mass density at least 1000 kg/m3? Consider Cc1ccccc1O [2-methylphenol]
A) 1

* * *

Assay: refractive index (Na D-line) (dimensionless)
Details: 308.15 K; 101.33 kPa; Liquid; Standard Abbe refractometry
Field: refractive index. Provide a value for each of the compounds that follow.
// no unit, no text: just the number

Q) For "Cc1ccc(O)cc1" , what is its reported refractive index?
A) 1.531

Q) For "CCCCCCCCCCO" , what is its reported refractive index?
A) 1.4305

Q) For "COc1ccccc1" , what is its reported refractive index?
A) 1.51095

Q) For "Cc1cccc(O)c1" , what is its reported refractive index?
A) 1.532

Q) For "Cc1ccccc1O" , what is its reported refractive index?
A) 1.53699

* * *

Field: speed of sound. Provide a value for each of the molecules that follow.
Details: 298.15 K; 101 kPa; Liquid; Sing-around technique in a fixed-path interferometer
Please reply with the bare figure in m/s and do not write the unit itself.

Q) For "CCCCCCCCCCO" , what is its reported speed of sound?
A) 1379.4

Q) For "COc1ccccc1" , what is its reported speed of sound?
A) 1406.9

Q) For "Cc1ccccc1O" , what is its reported speed of sound?
A) 1504.6

Q) For "Cc1cccc(O)c1" , what is its reported speed of sound?
A) 1480.9

Q) For "Cc1ccc(O)cc1" , what is its reported speed of sound?
A) 1486.4

* * *

Details: 308.15 K; 101 kPa; Liquid; Sing-around technique in a fixed-path interferometer
readout: speed of sound (m/s)
Please reply with the bare figure in m/s and do not write the unit itself.

Q) For CCCCCCCCCCO [decan-1-ol] , what is its reported speed of sound?
A) 1345.6

Q) For Cc1ccccc1O [2-methylphenol] , what is its reported speed of sound?
A) 1470.3

Q) For Cc1cccc(O)c1 [3-methylphenol] , what is its reported speed of sound?
A) 1449.6

Q) For COc1ccccc1 [anisole] , what is its reported speed of sound?
A) 1366.5

Q) For Cc1ccc(O)cc1 [4-methylphenol] , what is its reported speed of sound?
A) 1455

* * *

Experiment: refractive index (Na D-line) (dimensionless)
Details: 298.15 K; 101.33 kPa; Liquid; Standard Abbe refractometry
Field: refractive index. Provide a value for each of the molecules that follow.
// no unit, no text: just the number

Q) For "CCCCCCCCCCO" , what is its reported refractive index?
A) 1.43456

Q) For "Cc1ccccc1O" , what is its reported refractive index?
A) 1.544

Q) For "Cc1cccc(O)c1" , what is its reported refractive index?
A) 1.538

Q) For "COc1ccccc1" , what is its reported refractive index?
A) 1.51495

Q) For "Cc1ccc(O)cc1" , what is its reported refractive index?
A) 1.537

* * *

Conditions: 308.15 K; 101 kPa; Liquid
Mark 0 (no) for mass density values under 1000 kg/m3, and 1 (yes) for everything at or above.

Q) Is mass density at least 1000 kg/m3? Consider "Cc1ccccc1O"
A) 1 (yes)

Q) Is mass density at least 1000 kg/m3? Consider "CCCCCCCCCCO"
A) 0 (no)

* * *

Details: 303.15 K; 101 kPa; Liquid; Sing-around technique in a fixed-path interferometer
Field: speed of sound. Provide a value for each of the molecules that follow.
Please reply with the bare figure in m/s and do not write the unit itself.

Q) For Cc1ccc(O)cc1 [4-methylphenol] , what is its reported speed of sound?
A) 1470.7

Q) For Cc1ccccc1O [2-methylphenol] , what is its reported speed of sound?
A) 1487.4

Q) For Cc1cccc(O)c1 [3-methylphenol] , what is its reported speed of sound?
A) 1465.2

Q) For COc1ccccc1 [anisole] , what is its reported speed of sound?
A) 1386.8

Q) For CCCCCCCCCCO [decan-1-ol] , what is its reported speed of sound?
A) 1362.3

* * *

Assay: refractive index (Na D-line) (dimensionless)
Conditions: 303.15 K; 101.33 kPa; Liquid; Standard Abbe refractometry
readout: refractive index
// no unit, no text: just the number

Q) For Cc1ccc(O)cc1 [4-methylphenol] , what is its reported refractive index?
A) 1.534

Q) For COc1ccccc1 [anisole] , what is its reported refractive index?
A) 1.51395

Q) For Cc1cccc(O)c1 [3-methylphenol] , what is its reported refractive index?
A) 1.535

Q) For Cc1ccccc1O [2-methylphenol] , what is its reported refractive index?
A) 1.54099

* * *

Conditions: 298.15 K; 101 kPa; Liquid
Field: mass density. Provide a value for each of the compounds that follow.
Please reply with the bare figure in kg/m3 and do not write the unit itself.

Q) For "CCCCCCCCCCO" , what is its reported mass density?
A) 826.526

Q) For "Cc1ccc(O)cc1" , what is its reported mass density?
A) 1030.14

Q) For "Cc1ccccc1O" , what is its reported mass density?
A) 1042.32

Q) For "Cc1cccc(O)c1" , what is its reported mass density?
A) 1030.05

Q) For "COc1ccccc1" , what is its reported mass density?
A) 989.145

* * *

Conditions: 303.15 K; 101 kPa; Liquid
Field: mass density. Provide a value for each of the molecules that follow.
Please reply with the bare figure in kg/m3 and do not write the unit itself.

Q) For COc1ccccc1 [anisole] , what is its reported mass density?
A) 984.433

Q) For Cc1cccc(O)c1 [3-methylphenol] , what is its reported mass density?
A) 1026.09

Q) For Cc1ccc(O)cc1 [4-methylphenol] , what is its reported mass density?
A) 1026.28

* * *

Settings: 308.15 K; 101 kPa; Liquid
Field: mass density. Provide a value for each of the compounds that follow.
Please reply with the bare figure in kg/m3 and do not write the unit itself.

Q) For Cc1ccc(O)cc1 [4-methylphenol] , what is its reported mass density?
A) 1022.38

Q) For Cc1cccc(O)c1 [3-methylphenol] , what is its reported mass density?
A) 1022.12

Q) For COc1ccccc1 [anisole] , what is its reported mass density?
A) 979.712

Data origin: the NIST ThermoML archive (doi:10.1021/je100362p)
